// log10 of EC50 lookup, one value per entry
Molecular target: Toll-like receptor 7 (Homo sapiens, UniProt Q9NYK1)
Assay: HEK-Blue™ TLR7 cells were added to each well of a 384-well tissue-culture plate (15,000 cells per well) and incubated 16-18 h at 37° C., 5% CO2. Compounds (100 nl) were dispensed into wells containing the HEK-Blue™ TLR cells and the treated cells were incubated at 37° C., 5% CO2. After 18 h treatment ten microliters of freshly-prepared Quanti-Blue™ reagent (Invivogen) was added to each well, incubated for 30 min (37° C., 5% CO2) and SEAP levels measured using an Envision plate reader (OD=620 nm).
Friendly reminder: values = log10 of EC50, unit nM.

CCCCOc1nc(N)c2nc(O)n(Cc3ccc(Oc4ccc(CN5CCN(C)CC5)nc4)nc3)c2n1 ... 0.25
CCCCOc1nc(N)c2nc(O)n(Cc3ccc(Oc4cccc(CNCCC#N)n4)cc3)c2n1 ... 0.55
CCCCOc1nc(N)c2nc(O)n(Cc3ccc(Nc4ccc(CN5CCCC5)cc4)nc3)c2n1 ... 0.19
CCCCOc1nc(N)c2nc(O)n(Cc3ccc(Oc4ccc(CNC5CCC5)cc4)cc3)c2n1 ... 0.41
CCCCOc1nc(N)c2nc(O)n(Cc3ccc(Oc4ccc(CNC5COC5)cc4)cc3)c2n1 ... 0.23

Ask: Toll-like receptor 7 (Homo sapiens, UniProt Q9NYK1) / log10 of EC50 / CCCCOc1nc(N)c2nc(O)n(Cc3cccc(Oc4cccc(CN5CCNCC5)c4)c3)c2n1 : value?
Reply: 2.97

Ask: Toll-like receptor 7 (Homo sapiens, UniProt Q9NYK1) / log10 of EC50 / CCCCOc1nc(N)c2nc(O)n(Cc3ccc(Oc4ccc(CNC)cc4)nc3)c2n1 : value?
Reply: 0.08

Ask: Toll-like receptor 7 (Homo sapiens, UniProt Q9NYK1) / log10 of EC50 / CCCCOc1nc(N)c2nc(O)n(Cc3cccc(Oc4cccc(CNC)c4)c3)c2n1 : value?
Reply: 2.66

Ask: Toll-like receptor 7 (Homo sapiens, UniProt Q9NYK1) / log10 of EC50 / CCCCOc1nc(N)c2nc(O)n(Cc3ccc(Oc4ccc(CNCCO)cc4)cc3)c2n1 : value?
Reply: 0.15

Ask: Toll-like receptor 7 (Homo sapiens, UniProt Q9NYK1) / log10 of EC50 / CCCCOc1nc(N)c2nc(O)n(Cc3ccc(Oc4ccc(CN5CCOCC5)nc4)nc3)c2n1 : value?
Reply: -0.05

Ask: Toll-like receptor 7 (Homo sapiens, UniProt Q9NYK1) / log10 of EC50 / CCCCOc1nc(N)c2nc(O)n(Cc3ccc(Oc4ccc(CNCCOC)nc4)nc3)c2n1 : value?
Reply: -0.02

Ask: Toll-like receptor 7 (Homo sapiens, UniProt Q9NYK1) / log10 of EC50 / CCCCOc1nc(N)c2nc(O)n(Cc3ccc(Oc4ccc(CNC5C6CC5C6)cc4)nc3)c2n1 (configuration not stated) : value?
Reply: 0.11

====

Molecular target: Toll-like receptor 7 (Homo sapiens)
Sequence (Q9NYK1 whole entry): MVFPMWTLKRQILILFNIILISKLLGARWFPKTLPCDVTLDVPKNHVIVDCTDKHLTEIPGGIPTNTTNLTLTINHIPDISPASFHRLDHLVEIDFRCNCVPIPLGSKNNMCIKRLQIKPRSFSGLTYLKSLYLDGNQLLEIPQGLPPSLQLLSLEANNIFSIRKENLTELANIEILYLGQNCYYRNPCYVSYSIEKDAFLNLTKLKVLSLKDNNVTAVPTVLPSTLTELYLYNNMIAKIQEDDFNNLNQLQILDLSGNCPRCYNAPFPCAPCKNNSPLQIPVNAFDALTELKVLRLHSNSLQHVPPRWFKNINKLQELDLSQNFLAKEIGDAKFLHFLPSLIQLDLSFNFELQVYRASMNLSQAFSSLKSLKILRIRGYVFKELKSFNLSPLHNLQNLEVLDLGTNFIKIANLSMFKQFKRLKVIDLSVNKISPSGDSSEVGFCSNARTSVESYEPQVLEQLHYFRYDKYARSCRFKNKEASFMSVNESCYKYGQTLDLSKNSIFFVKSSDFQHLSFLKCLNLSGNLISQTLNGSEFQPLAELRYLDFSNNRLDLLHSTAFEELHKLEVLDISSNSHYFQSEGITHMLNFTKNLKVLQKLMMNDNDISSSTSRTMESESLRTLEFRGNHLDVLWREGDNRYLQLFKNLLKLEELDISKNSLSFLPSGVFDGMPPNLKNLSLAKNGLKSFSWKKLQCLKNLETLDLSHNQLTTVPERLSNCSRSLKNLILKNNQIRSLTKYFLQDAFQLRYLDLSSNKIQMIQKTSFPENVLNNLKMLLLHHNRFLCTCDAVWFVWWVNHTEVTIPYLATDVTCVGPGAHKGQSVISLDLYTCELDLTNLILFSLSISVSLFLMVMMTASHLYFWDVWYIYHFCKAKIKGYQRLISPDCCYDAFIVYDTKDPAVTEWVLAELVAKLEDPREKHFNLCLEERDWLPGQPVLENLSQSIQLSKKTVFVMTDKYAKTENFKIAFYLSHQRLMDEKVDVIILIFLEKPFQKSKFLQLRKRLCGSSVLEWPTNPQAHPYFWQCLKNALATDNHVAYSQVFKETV
Assay: HEK-Blue™ TLR7 cells were added to each well of a 384-well tissue-culture plate (15,000 cells per well) and incubated 16-18 h at 37° C., 5% CO2. Compounds (100 nl) were dispensed into wells containing the HEK-Blue™ TLR cells and the treated cells were incubated at 37° C., 5% CO2. After 18 h treatment ten microliters of freshly-prepared Quanti-Blue™ reagent (Invivogen) was added to each well, incubated for 30 min (37° C., 5% CO2) and SEAP levels measured using an Envision plate reader (OD=620 nm).
ENDPOINT: pEC50
// scale note: pEC50 = -log10(conc_M); give the bare number

CCCCOc1nc(N)c2nc(O)n(Cc3ccc(Nc4ccc(CNCC(F)F)cc4)nc3)c2n1 ... 8.13
CCCCOc1nc(N)c2nc(O)n(Cc3ccc(Nc4ccc(CNCCOC)cc4)nc3)c2n1 ... 8.92
CCCCOc1nc(N)c2nc(O)n(Cc3ccc(Oc4ccc(CN5CCOCC5)cc4)c(F)c3)c2n1 ... 8.41
CCCCOc1nc(N)c2nc(O)n(Cc3ccc(Oc4ccc(CN5CCC5)cc4)c(F)c3)c2n1 ... 8.95
CCCCOc1nc(N)c2nc(O)n(Cc3ccc(Oc4ccc(CNCc5ccccc5)cc4)nc3)c2n1 ... 8.28

Ask: Toll-like receptor 7 (Homo sapiens) / pEC50 / CCCCOc1nc(N)c2nc(O)n(Cc3ccc(Oc4ccc(CN5CCN(C)CC5)cc4)c(F)c3)c2n1 : value?
Reply: 8.54

Ask: Toll-like receptor 7 (Homo sapiens) / pEC50 / CCCCOc1nc(N)c2nc(O)n(Cc3ccc(Oc4ccc(CNCc5ccccc5)cc4)cc3)c2n1 : value?
Reply: 7.89

Ask: Toll-like receptor 7 (Homo sapiens) / pEC50 / CCCCOc1nc(N)c2nc(O)n(Cc3ccc(Nc4ccc(CNCC(C)C)cc4)nc3)c2n1 : value?
Reply: 8.12

Ask: Toll-like receptor 7 (Homo sapiens) / pEC50 / CCCCOc1nc(N)c2nc(O)n(Cc3ccc(Oc4cccc(CNCC(C)C)n4)cc3)c2n1 : value?
Reply: 8.62

====

Molecular target: UniProt Q9NYK1
Test: HEK-Blue™ TLR7 cells were added to each well of a 384-well tissue-culture plate (15,000 cells per well) and incubated 16-18 h at 37° C., 5% CO2. Compounds (100 nl) were dispensed into wells containing the HEK-Blue™ TLR cells and the treated cells were incubated at 37° C., 5% CO2. After 18 h treatment ten microliters of freshly-prepared Quanti-Blue™ reagent (Invivogen) was added to each well, incubated for 30 min (37° C., 5% CO2) and SEAP levels measured using an Envision plate reader (OD=620 nm).
ENDPOINT: pEC50
// scale note: pEC50 = -log10(conc_M); give the bare number

Before answering, review these 5 worked examples.
CCCCOc1nc(N)c2nc(O)n(Cc3ccc(Oc4ccc(CNC5COC5)cc4)nc3)c2n1 ... 9.15
CCCCOc1nc(N)c2nc(O)n(Cc3ccc(Oc4ccc(CNCC(F)F)nc4)nc3)c2n1 ... 8.74
CCCCOc1nc(N)c2nc(O)n(Cc3ccc(Oc4ccc(CNCC5CC5)cc4)nc3)c2n1 ... 8.96
CCCCOc1nc(N)c2nc(O)n(Cc3ccc(Oc4ccc(CNCCOC)cc4)c(F)c3)c2n1 ... 8.94
CCCCOc1nc(N)c2nc(O)n(Cc3ccc(Oc4cccc(CNC5CCC5)n4)cc3)c2n1 ... 8.60

Ask: // lookup pEC50 for CCCCOc1nc(N)c2nc(O)n(Cc3cccc(Oc4cccc(CNCCS(C)(=O)=O)c4)c3)c2n1
Reply: 6.81

Ask: // lookup pEC50 for CCCCOc1nc(N)c2nc(O)n(Cc3ccc(Oc4ccc(CNC5CC(F)(F)C5)cc4)nc3)c2n1
Reply: 8.89

Ask: // lookup pEC50 for CCCCOc1nc(N)c2nc(O)n(Cc3ccc(Oc4ccc(CNCC(C)C)cc4)c(F)c3)c2n1
Reply: 9.35

Ask: // lookup pEC50 for CCCCOc1nc(N)c2nc(O)n(Cc3cccc(Oc4cccc(CNCCO)c4)c3)c2n1
Reply: 6.43

Ask: // lookup pEC50 for CCCCOc1nc(N)c2nc(O)n(Cc3ccc(Oc4ccc(CNCC(F)F)cc4)c(F)c3)c2n1
Reply: 8.74

Ask: // lookup pEC50 for CCCCOc1nc(N)c2nc(O)n(Cc3ccc(Oc4ccc(CNC5CCC5)cc4)c(F)c3)c2n1
Reply: 8.86

Ask: // lookup pEC50 for CCCCOc1nc(N)c2nc(O)n(Cc3ccc(Oc4ccc(CNC5CC5)cc4)cc3)c2n1
Reply: 8.68

Ask: // lookup pEC50 for CCCCOc1nc(N)c2nc(O)n(Cc3ccc(Oc4ccc(CNCCS(C)(=O)=O)cc4)nc3)c2n1
Reply: 8.74

Ask: // lookup pEC50 for CCCCOc1nc(N)c2nc(O)n(Cc3ccc(Oc4ccc(CNCCC#N)cc4)nc3)c2n1
Reply: 9.46

Ask: // lookup pEC50 for CCCCOc1nc(N)c2nc(O)n(Cc3ccc(Nc4ccc(CNC5CCOCC5)cc4)nc3)c2n1
Reply: 8.37

Ask: // lookup pEC50 for CCCCOc1nc(N)c2nc(O)n(Cc3cccc(Oc4cccc(CNC5COC5)c4)c3)c2n1
Reply: 6.39

Ask: // lookup pEC50 for CCCCOc1nc(N)c2nc(O)n(Cc3ccc(Nc4ccc(CNCCS(C)(=O)=O)cc4)nc3)c2n1
Reply: 9.43

Ask: // lookup pEC50 for CCCCOc1nc(N)c2nc(O)n(Cc3ccc(Nc4ccc(CNC5CCC5)cc4)nc3)c2n1
Reply: 8.91

Ask: // lookup pEC50 for CCCCOc1nc(N)c2nc(O)n(Cc3ccc(Oc4ccc(CO)cc4)nc3)c2n1
Reply: 7.92

Ask: // lookup pEC50 for CCCCOc1nc(N)c2nc(O)n(Cc3ccc(Nc4ccc(CNCC(C)(C)O)cc4)nc3)c2n1
Reply: 8.49

Ask: // lookup pEC50 for CCCCOc1nc(N)c2nc(O)n(Cc3ccc(Nc4ccc(CN5CCN(C)CC5)cc4)nc3)c2n1
Reply: 8.38

Ask: // lookup pEC50 for CCCCOc1nc(N)c2nc(O)n(Cc3ccc(Oc4ccc(CNC5CCCC5)cc4)nc3)c2n1
Reply: 8.80

Ask: // lookup pEC50 for CCCCOc1nc(N)c2nc(O)n(Cc3ccc(Oc4ccc(CNCCO)nc4)nc3)c2n1
Reply: 8.80

Ask: // lookup pEC50 for CCCCOc1nc(N)c2nc(O)n(Cc3ccc(Oc4ccc(CNC(C)C)cc4)nc3)c2n1
Reply: 8.96

Ask: // lookup pEC50 for CCCCOc1nc(N)c2nc(O)n(Cc3cccc(Oc4cccc(CNCCC#N)c4)c3)c2n1
Reply: 6.55

Ask: // lookup pEC50 for CCCCOc1nc(N)c2nc(O)n(Cc3ccc(Oc4ccc(CNCCO)cc4)c(F)c3)c2n1
Reply: 9.34

Ask: // lookup pEC50 for CCCCOc1nc(N)c2nc(O)n(Cc3ccc(Oc4ccc(CNC5CCC5)nc4)nc3)c2n1
Reply: 8.68
